The origin of these recorded values is patent US20150266974A1.

Let's look at some binders and their measured kon.
test.target: T1, mouse PCSK9 (mouse, UniProt Q80W65 35-694, limits assumed)
T1 construct: also called mPCSK9; msPCK9
T1 sequence (Q80W65 35-694 limits assumed): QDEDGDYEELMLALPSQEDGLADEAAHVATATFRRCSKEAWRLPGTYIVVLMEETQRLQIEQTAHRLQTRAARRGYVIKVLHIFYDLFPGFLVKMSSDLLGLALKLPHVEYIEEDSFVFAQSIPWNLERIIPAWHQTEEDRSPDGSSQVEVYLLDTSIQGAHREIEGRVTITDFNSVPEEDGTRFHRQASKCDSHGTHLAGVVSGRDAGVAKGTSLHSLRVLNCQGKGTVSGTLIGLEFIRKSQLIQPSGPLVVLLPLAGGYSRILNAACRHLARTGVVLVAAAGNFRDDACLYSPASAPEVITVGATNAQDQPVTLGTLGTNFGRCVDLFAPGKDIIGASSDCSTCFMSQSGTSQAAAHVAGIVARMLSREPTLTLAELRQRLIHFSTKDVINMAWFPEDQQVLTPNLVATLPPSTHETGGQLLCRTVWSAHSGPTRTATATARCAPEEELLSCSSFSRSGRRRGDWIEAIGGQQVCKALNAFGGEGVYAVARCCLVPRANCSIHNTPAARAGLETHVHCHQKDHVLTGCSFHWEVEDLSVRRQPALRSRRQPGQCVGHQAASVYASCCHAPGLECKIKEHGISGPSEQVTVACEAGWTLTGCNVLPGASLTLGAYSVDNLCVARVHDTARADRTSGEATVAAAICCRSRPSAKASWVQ
assay.method.text: SPR Biacore 3000, captured IgG, mPCSK9 injected, pH 7.4
Quick reminder: number only, in M⁻¹ s⁻¹, skip the unit.

What does the data say about its kon? Entry: 5L1724H35 (antibody, V domains shown, Triple histidine mutant of h5A10; Only CDRs printed; Full-length IgG) VH: QVQLVQSGAEVKKPGASVKVSCKASGYTFTSYYMHWVRQAPGQGLEWMGEINPSGGRTNYNEKFKSRVTMTRDTSTSTVYMELSSLRSEDTAVYYCARERPLHAMDYWGQGTTVTVSS VL: DIQMTQSPSSLSASVGDRVTITCKASQDVHTAVAWYQQKPGKAPKLLIYSASHRYTGVPSRFSGSGSGTDFTFTISSLQPEDIATYYCQQRYSTPRTFGQGTKLEIK
44300

Check 5L1721H23_6H3 (antibody, V domains shown, Only CDRs printed; Full-length IgG) VH: QVQLVQSGAEVKKPGASVKVSCKASGYTFTSYYMHWVRQAPGQGLEWMGEIHPSGGRTNYNEKFKSRVTMTRDTSTSTVYMELSSLRSEDTAVYYCARERPLYASDLWGQGTTVTVSS VL: DIQMTQSPSSLSASVGDRVTITCKASQDVHTAVAWYQQKPGKAPKLLIYHASYRYTGVPSRFSGSGSGTDFTFTISSLQPEDIATYYCQQRYSTPRTFGQGTKLEIK too.
113000

Follow-up entry: 5L1724H23_6L3 (antibody, V domains shown, Only CDRs printed; Full-length IgG) VH: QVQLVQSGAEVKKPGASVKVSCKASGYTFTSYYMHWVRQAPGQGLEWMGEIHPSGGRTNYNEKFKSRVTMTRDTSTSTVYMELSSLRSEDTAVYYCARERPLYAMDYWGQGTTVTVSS VL: DIQMTQSPSSLSASVGDRVTITCKASQDVHTAVAWYQQKPGKAPKLLIYSASHRYTGVPSRFSGSGSGTDFTFTISSLQPEDIATYYCQQRYSLWRTFGQGTKLEIK
53100
